- Assay info: 4-week repeat-dose toxicity/TK study in dogs
- Type: in vivo, beagle dogs
- Details: female, beagle, dog, plasma, po, 100 mg/kg/day, day 28, PO 100 mg/kg/day, F
Property measured: Cmax (ng/mL)
Give bare numbers, in ng/mL.

Which value of Cmax has been reported for C[C@]12CC[C@@H]3c4ccc(B(O)O)cc4C[C@@H](CCCCCCCCC[S+]([O-])CCCC(F)(F)C(F)(F)F)[C@H]3[C@@H]1CC[C@@H]2O (stereo partly shown) in the records?
1870

====

- Assay info: Metabolic stability in human hepatocytes
- Assay type: in vitro ADME
- Details: read-out: In Vitro Clint
Property measured: hepatocyte CLint at 1 μM (µL/min/1e6 cells)
One number for each entry, in µL/min/1e6 cells.

Which value of hepatocyte CLint at 1 μM has been reported for C[C@]12CC[C@@H]3c4ccc(B(O)O)cc4C[C@@H](CCCCCCCCC[S+]([O-])CCCC(F)(F)C(F)(F)F)[C@H]3[C@@H]1CC[C@@H]2O (stereo partly shown) in the records?
39.7

====

- Test system: CYP2B6
- Assay info: CYP induction (enzyme activity) in cryopreserved human hepatocytes, CYP2B6
- Details: human, plated cryopreserved human hepatocytes, Fold Induction, donor one, 15 µM
Property measured: fold induction at 72 h, 15 µM

Which value of fold induction at 72 h, 15 µM has been reported for C[C@]12CC[C@@H]3c4ccc(B(O)O)cc4C[C@@H](CCCCCCCCC[S+]([O-])CCCC(F)(F)C(F)(F)F)[C@H]3[C@@H]1CC[C@@H]2O (stereo partly shown) [ZB716, fulvestrant-3-boronic acid] in the records?
4.24

====

- Target: CYP2C9 (Homo sapiens)
- Sequence (P11712 whole entry): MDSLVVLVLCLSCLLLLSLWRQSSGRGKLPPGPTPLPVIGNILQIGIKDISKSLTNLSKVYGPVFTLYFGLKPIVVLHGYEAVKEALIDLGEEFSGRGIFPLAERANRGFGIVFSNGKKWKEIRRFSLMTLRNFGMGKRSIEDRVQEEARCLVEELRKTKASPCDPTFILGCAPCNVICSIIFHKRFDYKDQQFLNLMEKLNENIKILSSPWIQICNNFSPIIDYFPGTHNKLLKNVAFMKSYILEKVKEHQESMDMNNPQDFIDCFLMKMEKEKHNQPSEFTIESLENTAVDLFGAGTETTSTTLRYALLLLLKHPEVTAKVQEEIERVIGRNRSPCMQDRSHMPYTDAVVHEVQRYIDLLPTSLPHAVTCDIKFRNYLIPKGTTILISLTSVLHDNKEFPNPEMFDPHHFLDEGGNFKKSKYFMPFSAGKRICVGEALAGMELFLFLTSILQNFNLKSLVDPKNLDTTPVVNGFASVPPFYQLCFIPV
- Assay info: CYP inhibition in human liver microsomes, CYP2C9
- Assay type: in vitro ADME
- Details: HLM, marker substrate Diclofenac
Property measured: pIC50
One number for each entry, as −log10 of the molar value.

Which value of pIC50 has been reported for C[C@]12CC[C@@H]3c4ccc(B(O)O)cc4C[C@@H](CCCCCCCCC[S+]([O-])CCCC(F)(F)C(F)(F)F)[C@H]3[C@@H]1CC[C@@H]2O (stereo partly shown) [ZB716, fulvestrant-3-boronic acid] in the records?
5.32

====

- Target: CYP2D6 (Homo sapiens, UniProt P10635)
- Sequence (P10635 whole entry): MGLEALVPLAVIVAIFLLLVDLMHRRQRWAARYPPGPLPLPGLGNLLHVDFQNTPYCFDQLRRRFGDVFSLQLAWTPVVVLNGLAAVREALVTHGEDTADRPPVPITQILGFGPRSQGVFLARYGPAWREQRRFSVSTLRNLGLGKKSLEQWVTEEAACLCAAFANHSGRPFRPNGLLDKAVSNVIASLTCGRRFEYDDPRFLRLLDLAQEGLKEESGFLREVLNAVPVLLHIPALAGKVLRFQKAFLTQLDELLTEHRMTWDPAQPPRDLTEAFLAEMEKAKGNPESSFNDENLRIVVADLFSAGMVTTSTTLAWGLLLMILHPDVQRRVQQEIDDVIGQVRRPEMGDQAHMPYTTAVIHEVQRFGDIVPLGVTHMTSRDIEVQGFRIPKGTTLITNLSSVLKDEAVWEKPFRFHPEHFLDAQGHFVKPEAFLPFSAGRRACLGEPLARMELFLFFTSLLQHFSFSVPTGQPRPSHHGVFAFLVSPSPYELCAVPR
Property measured: IC50 (µM)
Answers are plain numbers, in µM.

Which value of IC50 has been reported for C[C@]12CC[C@@H]3c4ccc(B(O)O)cc4C[C@@H](CCCCCCCCC[S+]([O-])CCCC(F)(F)C(F)(F)F)[C@H]3[C@@H]1CC[C@@H]2O (stereo partly shown) in the records?
12.5

====

- Assay info: 7-day repeated-dose PK in rats
- Assay type: in vivo, Sprague Dawley rats
- Details: male, Sprague Dawley (Crl: CD (SD)), rat, plasma, po, 400 mg/kg/day, day 1, PO 400 mg/kg/day, M; read-out: Tmax (median)
Property measured: Tmax (h)
Answers are plain numbers, in h.

Which value of Tmax has been reported for C[C@]12CC[C@@H]3c4ccc(B(O)O)cc4C[C@@H](CCCCCCCCC[S+]([O-])CCCC(F)(F)C(F)(F)F)[C@H]3[C@@H]1CC[C@@H]2O (stereo partly shown) in the records?
8

====

- Assay info: 7-day repeated-dose PK in rats
- Assay type: in vivo, Sprague Dawley rats
- Details: male, Sprague Dawley, rat, plasma, po, 400 mg/kg/day, day 7, PO 400 mg/kg/day, M
Property measured: Cmax (ng/mL)
Give bare numbers, in ng/mL.

Which value of Cmax has been reported for C[C@]12CC[C@@H]3c4ccc(B(O)O)cc4C[C@@H](CCCCCCCCC[S+]([O-])CCCC(F)(F)C(F)(F)F)[C@H]3[C@@H]1CC[C@@H]2O (stereo partly shown) in the records?
2340

Source listed as paper PMC8400955.
